Taken from the nanobody polyreactivity screen of Harvey et al. (2022).

Measurement notes: yeast display, Sf9 membrane polyspecificity reagent, FACS + sequencing; frameworks hold sequencing errors
Measurement name: polyreactivity (PSR sort gate)

Sequence chain | Recorded result
QVQLVESGGGLVQAGGSLRLSCAASGRIIWSYAMGWYRQAPGKERELVAAIRSGGTTDYADSVKGRFTISRDNAKNTVYLQMNSLKPEDTAVYYCAADPYSVYGGDYWGQGTQVTVSS | low polyreactivity
QVQLLDSGGGLVQAGGSLSLSCAASGSSFRYYAMGWYRPAPRKEREFVADISWSGSSTYYADSVKGRFTISRDNSKITVYLLMNSLTPEDTAVYYCAARYRYRSSSYDYWGQGTQVTVSS | high polyreactivity
QVQLEESGRGLVQAGGSLRLSCASSGIIFDGNAMGWYRQAAGKERELVAAITGGGSTDNADSVKGRFTISRDNGKYTVYLQMNSLKPEDTAVYYCAAVRSYYPGYYLGQGTQVTVSS | high polyreactivity
QVQLVESGGGLVQAGGSLRLSCAASGSTFKYNAMGWSRQAPGKERELVASISRSGGSTYYADSVKGRFTISRDNAKNTVYLQMNSQKPEDTAVYYCNVRRFVHYEYWGQGTQVTVSS | high polyreactivity
QVQLVESGGGLVQAGGSLRLSCAASGFTFLYNAMGWYRQAPGKERELVASIRTGTGTYYADSVKGRFTISRDNAKNTVYLQMNSLKPEDTAVYYCAAENFYPYTYYASDYWGQGTQVTVSS | high polyreactivity
QLQLVESGGGLVQAGGSLRLSCAASGLTFYVYAMGWYRQAPCKERELVAAISSGGRTYYADSVKGRFTISRDNAKNTVYLQMNSLKPEDTAVYYCAAVRHRNYGYWGQGTQVTVSS | high polyreactivity
QVQLVESGGGLVQAGGILRLSCAASGSNFGYYVMGWYRQAPGKERELVAGISTGGSTYYADSVKGRFTISRDNAKNTVYLQMNSLKPEDTAVYYCAADYTLSYWGFVYWGQGTQVTVSS | low polyreactivity
QVQLVESGGGLVQAGGSLRLSCAASGRIFGGYAMGWYRQAPGKERELVAAISSGGNTKYADSVKGRFTISRDNAKNTVYLQMNSLKPEDTAVYYCAAKFAQPYYRYDYWGQGTQVTVSS | high polyreactivity

Provide one value: measured polyreactivity (PSR sort gate) of QVQLVESGGGLVQAGGSLRLSCAASGSTFTRYAMGWYRQAPGKERELVAAISSSAGRTYYADSVKGRFTISRDYAKNTVYLQMKSLKPEDTAVYYCAATRVYAGAQYDYWGQGTKVTVSS
high polyreactivity

Provide one value: measured polyreactivity (PSR sort gate) of QVQLVESGGGLVQAGGSLRLSCAASGSTFCFNAMGWSRQAPGKEREMVAAIPSRGGSTYYADSVKGRFTSSRDNAKKTVYLQMKSLKPEDTAVYYCASDYFGFSYAGYNYWGQGTQVTVSS
low polyreactivity

Provide one value: measured polyreactivity (PSR sort gate) of QVQLVESGGGLVQAGGSLRLSCSASGLIYYYYTMGWYRPPPGKERELVAVISSSGGSTYYADSVKGRFTISRDNAKNTVYLQMNSLKPEDTAVYYCAAVYHFQYGAYDYWGQGTQGTVSS
high polyreactivity

====

Measurement notes: yeast display, Sf9 membrane polyspecificity reagent, FACS + sequencing; frameworks hold sequencing errors
Measurement name: polyreactivity (PSR sort gate)

Look over these answered cases.
Sequence chain | polyreactivity (PSR sort gate)
QVQLVESGGGLVQAGGSLRLSCAASGFIFDVNAMGWYRQAPGKERELVATISKRGGTTYYADSVKGRFTISRDNAKNTVYLQMNSLKPEDTAVYYCAARHQTLRSYRYDYWGQGTQVTVSS | low polyreactivity
QVQLVESGGGLVQAGGSLRLSCAASGFIITGNAMGWYRKAPGKERELVAAITSGGNTYYADSVKGRFTISRDNAKNTVYLQMNSLKPEDTAVYYCAKYVPHWRILMEYWGQGTQVTVSS | low polyreactivity
QVQLVESGGGLVQAGGSLRLSCAASGSTFYPNAMGWYRQAPGKERELVAAITTSGGSTYYADSVKGRCTISRDNAKNTVYLQMNSLKPEDTAVYYCAAEVRDRGWEPYGPIYDYWGQGTQVTVSS | high polyreactivity
QVQLVESGGGLVQAGGSLRLRCAASGTTFRLYAMGWYRQAPGKERELVAAISWIGGRTYYADSVKGRFTISRDNAKNTVYLQMNSLKPEDTAVYYCAATCAYRVARGYDYWGQGTQVTVSS | high polyreactivity
QVQLVESGGGLVQAGGSLRLSCAASGRTFVTNTMGWYRQAPGKEREFVAAITWNGGGTYYADSVKGRFTISRDNAKNTVYLQMNSLKPEDTAVYYCAARGRTDSYWRFYHWGQGTQVTVSS | high polyreactivity

Provide one value: measured polyreactivity (PSR sort gate) of QVQLVESGGGLVQAGGSLRLSCAASGRTLKYNAMGWYRQAPGKERELVAAISWSGTRTYYADSVKGRFTISRDNAKNTVYLQMNSLKPEDTAVYYCALYGGLGDRFRPRYYWGQGTQVTVSS
high polyreactivity

Provide one value: measured polyreactivity (PSR sort gate) of QVQLVESGGGLVQAGGSLRLSCAASGRIFRYNAMGWYRQAPGKERELVAAISRGGSSTYYADSVKGRFTISRDNAKNTVYLQMNSLKPEDTAVYYCNARSVVREFNYWGQGTQVTVSS
high polyreactivity

Provide one value: measured polyreactivity (PSR sort gate) of QVQLVESGGGLVQAGGSLRLSCAASGRTFGWYAMGWYRQAPGKERELVATITRGGSTYYADSVKGRFTISRDNAKNTVYLQMNSLKPEDTAVYYCNARRYLWLRRYDYWGQGTQVTVSS
high polyreactivity

Provide one value: measured polyreactivity (PSR sort gate) of QVQLVESGGGLVQAGGSLRLSCAASGSTFRYYAMGWYRQAPGKERELVAAISRRGGSSYYADSVKGRFTISRDNAKKTVYLQMNSLKPEDTAVYYCNAAASTFTSWIRGPGVCYDYWGQGTQVTVSS
high polyreactivity

Provide one value: measured polyreactivity (PSR sort gate) of QVQLVESGGGLVQAGGSLRLSCAASGITFKFYAMGWYRQAPGKEREWVATISWSGGITYYADSVKGRFTISRDNAKNTVYLQMNSLKPEDTAVYYCAADGPFTPRYYYWGQGTQVTVSS
low polyreactivity

Provide one value: measured polyreactivity (PSR sort gate) of QVQLVESGGGLVQAGCSLRLSCAASGRTFDDYAMGWYRQAPGKERELVAAISSRCGSTYYADSVKGRFTISRDNAKNSVYLQMNSLKPEDTAVYYCNTLQSSHGSSQYDSWGQGTQVTVSS
low polyreactivity

====

Measurement notes: yeast display, Sf9 membrane polyspecificity reagent, FACS + sequencing; frameworks hold sequencing errors
Measurement name: polyreactivity (PSR sort gate)

Sequence chain | Measurement name | Recorded result
QVQLVESGGGLVQAGGSLRLSCAASGFTSWQYAMGWSIQAPGKERELVAAISVSGASTYYADSVKGRFTISRDNAKNTVYLQMNSLKPEDTAVYYCAAAYVRYPTTRYYYWGQGTQVTVSS | polyreactivity (PSR sort gate) | high polyreactivity
QVQLVESGGGLVQAGGSLRLSCAASGFTFSTYAMGWYRQAPGKERELVAAISGSGGRTYYADSVKGRFKISRDNAKNTVYLQMNSLKPEDTAVYYCAALTYSTVLGFDYWGQGTQVTVSS | polyreactivity (PSR sort gate) | high polyreactivity

====

Measurement notes: yeast display, Sf9 membrane polyspecificity reagent, FACS + sequencing; frameworks hold sequencing errors
Measurement name: polyreactivity (PSR sort gate)

Sequence chain | Measurement name | Recorded result
QVQLVESGGGLVKAGGSLRLSSAASGYNTNTYAMGWYRQAPGKERELVAAISGSGGSTYYADSVKGRFTMSRDNAKTTVYLQMNSLKPEDTAVYYCNVVVRYPSAYDYWGQGTQVTVSS | polyreactivity (PSR sort gate) | high polyreactivity
QVQLVESGGGLVQAGGSLRLSCAASGRIFPYYAIGWYRQAPGKERELVASTNYADSVKGRFTISRDNAKNTVYLQMNSLKPEDTAVYYCNADSVYPPGSDYVVRDGNFDYWGQGTQVTVSS | polyreactivity (PSR sort gate) | low polyreactivity
QVQLVESGGGLVQAGCSLRLSWAASGNIFKGYAMGWSRQAPGKERELVAAISKSGGSTYYADSVKGRFTISRDNAKNTVYLQMNSLKPEDTAVYYCNTYTYAGYNFWGQGTQVTVSS | polyreactivity (PSR sort gate) | high polyreactivity
QVQLVESGGGLVQAGGSLPLSCAASGRTFHYNAMGWYRQAPGKERDLFAAISRDGGSTDYADSVKGRFTISSDNAKNTVYLQMNSLKPEDTAVYYCAAPIGKQEFSRDYDYWGQGTQVTVSS | polyreactivity (PSR sort gate) | low polyreactivity

Kindly review the next sequence as well.
Provide one value: measured polyreactivity (PSR sort gate) of QVQLVESGGGLVQAGGSLRLSCAASGFYGNAMGWYRQAPGKERELVAAITWSGGSTYYADSVKGRFTISRDNAKNTVYLQMNSLKPEDTAVYYCNKLQHRKYNGYDYWGQGTQVTVSS
high polyreactivity
